- experimental.system: cAMP-dependent protein kinase catalytic subunit alpha (Homo sapiens) (UniProt P17612);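 also: mean percent inhibition of PKA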
- details: at 1 µM
recorded.endpoint: inhibition (%)
Note: unit % is implicit; provide only the numeric part.

These recorded examples may help you get a feel for the data.
{"molecule": "CCCN1CCC=C(c2ccc(Nc3nc(Nc4ccccc4C(N)=O)c4cc[nH]c4n3)c(C)c2)C1", "experimental.system": "cAMP-dependent protein kinase catalytic subunit alpha (Homo sapiens) (UniProt P17612)", "inhibition, %": 2.79}
{"molecule": "COc1ccc(COc2ccc(Cc3cnc(N)nc3N)cc2OC)cc1", "experimental.system": "cAMP-dependent protein kinase catalytic subunit alpha (Homo sapiens) (UniProt P17612)", "inhibition, %": 1.52}

[Q] Which measured inhibition value corresponds to COc1ccccc1Nc1ncc(-c2ccccc2)o1 ?
[A] 3.65

[Q] What would you report for COc1ccc2cc(-c3c(-c4ccncc4)nc(-c4ccc([S+](C)[O-])cc4)n3C)ccc2c1 (stereo not given) ?
[A] 9.5

[Q] # repeat for Fc1cccc(COc2ccc(Nc3ncnc4sc(-c5cccs5)cc34)cc2Cl)c1
[A] 1.04

[Q] Check Nc1ncnc2occ(-c3ccc(NC(=O)Nc4cccc(C(F)(F)F)c4)cc3)c12 too.
[A] 4.85

[Q] Cool, now c1cnn2ncc(-c3ccnc(Nc4ccc5c(c4)OCCO5)n3)c2c1
[A] 7.09

----------
- experimental.system: Serine/threonine-protein kinase B-raf (Homo sapiens)
- details: at 0.1 µM
Listed here: items and their measured inhibition.
Answer format: numeric, % implied, no suffix.

Field: example entries. Status: answers known.
{"compound.structure.string": "CCn1c(-c2nonc2N)nc2cncc(C(=O)N3CC[C@H](N)C3)c21", "unit.of.measure": "%", "inhibition": 6.39}
{"compound.structure.string": "O=C1NC(=O)C(c2cccc(Cl)c2)=C1Nc1ccc(O)c(Cl)c1", "unit.of.measure": "%", "inhibition": 1.14}
{"compound.structure.string": "CS(=O)(=O)CCN(CC#N)Cc1ccc(-c2ccc3ncnc(Nc4ccc(OCc5cccc(F)c5)c(Cl)c4)c3c2)o1", "unit.of.measure": "%", "inhibition": 4.46}
{"compound.structure.string": "NC(=O)c1cccc(Nc2nccc(Nc3cccc4[nH]ncc34)n2)c1", "unit.of.measure": "%", "inhibition": -3.03}
{"compound.structure.string": "CS(=O)(=O)CCNCc1nc(-c2ccc3ncnc(Nc4ccc(F)c(Cl)c4)c3c2)cs1", "unit.of.measure": "%", "inhibition": 1.66}

# evaluate next
[Q] Report inhibition for O=C1NC(=O)C(c2ccccc2Cl)=C1Nc1cccc(O)c1 tested on Serine/threonine-protein kinase B-raf (Homo sapiens).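 Also: mean percent inhibition of BRAF kinase activity, from the GSK PKIS kinase inhibitor screening set.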
[A] 3.05

----------
- experimental.system: Dual specificity protein kinase CLK2 (Homo sapiens);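 also: reported values are mean percent inhibition of CLK2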
- details: at 1 µM
recorded.endpoint: inhibition

Please review the entries below; each comes with its answer.
{"compound.structure.string": "Cc1cccc(-c2n[nH]cc2-c2ccc3ncccc3n2)n1", "inhibition": "3.44%"}
{"compound.structure.string": "COc1ccc(-c2nn3ncccc3c2-c2ccnc(Nc3ccc(Cl)c(C(F)(F)F)c3)n2)cc1", "inhibition": "1.59%"}
{"compound.structure.string": "COc1cccc(-n2ncc3c(N/N=C/c4cccc(F)c4)ncnc32)c1", "inhibition": "1.15%"}

[Q] Item CN1CCC(C(=O)Nc2n[nH]c3nnc(-c4ccccc4)cc23)CC1 with Dual specificity protein kinase CLK2 (Homo sapiens) - inhibition?
[A] 2.3%

[Q] Next up: Fc1cccc(COc2ccc(Nc3ncnc4cc(-c5ccc[nH]5)sc34)cc2Cl)c1
[A] -0.33%

[Q] Another: NS(=O)(=O)c1ccc(N/N=C2\C(=O)Nc3ccc(C(=O)NCCc4c[nH]cn4)cc32)cc1
[A] 91.9%

[Q] Entry to check: COc1cc2c(cc1Nc1nc(N3CCc4ccccc43)c3cc[nH]c3n1)N(C(=O)CN(C)C)CC2
[A] 44.4%

[Q] Next molecule: N#Cc1c(NC(=O)c2cccc3ccccc23)sc2c1CCCC2
[A] 0.3%

[Q] Now the molecule CCCN1CCC=C(c2ccc(Nc3nc(Nc4ccccc4C(N)=O)c4cc[nH]c4n3)c(C)c2)C1
[A] 88.9%
